Data provenance: paper PMC6512341

- Test system: MDR1
- Experiment Description: Permeability studies in MDCK-MDR1 cells
- Type: in vitro ADME
- Experimental Setup: dog, MDCK-MDR1
Cut-off 100 nm/s on Papp B→A at 2 h: below means yes, at or above means no.

Query block: Answer whether the compound O=C(NO)c1ccc(CN2CCc3ccc(F)cc32)cc1 [Compound 11] has Papp B→A at 2 h strictly less than 100 nm/s
Result block: no

Query block: Is the reported Papp B→A at 2 h for Cn1c(NCc2ccc(C(=O)NO)cc2)nc2ccccc21 [Compound 12] strictly below 100 nm/s?
Result block: yes

Query block: Please check: Papp B→A at 2 h for CN(C)c1ccc(Cc2ccc(C(=O)NO)cc2)cc1 [Compound 7] , strictly under 100 nm/s or not?
Result block: no

Query block: Papp B→A at 2 h under 100 nm/s? Item: Cc1nc2ccccc2n1Cc1ccc(C(=O)NO)cc1F [Compound 9]
Result block: no

Query block: Dear colleague, could you confirm whether Papp B→A at 2 h of Cc1nc2ccc(F)cc2n1Cc1ccc(C(=O)NO)cc1 [Compound 8] falls below 100 nm/s? Thanks.
Result block: no

Query block: Report whether reported Papp B→A at 2 h is lower than 100 nm/s (strictly) for O=C(NO)c1ccc(CN2CCCc3cc(Cl)ccc32)cc1 [SW-100]
Result block: yes

Query block: For O=C(NO)c1ccc(CN2CCc3ccc(Cl)cc32)cc1 [Compound 10] , is the recorded Papp B→A at 2 h below the cut-off of 100 nm/s?
Result block: yes

Query block: Lab log: compare recorded Papp B→A at 2 h with 100 nm/s; is it strictly lower for CN1CCc2c(c3ccccc3n2Cc2ccc(C(=O)NO)cc2)C1 [TubA, tubastatin A, reference compound] ?
Result block: no

----------
- Test Target: CYP1A2 (Homo sapiens, UniProt P05177)
- Sequence (P05177 whole entry): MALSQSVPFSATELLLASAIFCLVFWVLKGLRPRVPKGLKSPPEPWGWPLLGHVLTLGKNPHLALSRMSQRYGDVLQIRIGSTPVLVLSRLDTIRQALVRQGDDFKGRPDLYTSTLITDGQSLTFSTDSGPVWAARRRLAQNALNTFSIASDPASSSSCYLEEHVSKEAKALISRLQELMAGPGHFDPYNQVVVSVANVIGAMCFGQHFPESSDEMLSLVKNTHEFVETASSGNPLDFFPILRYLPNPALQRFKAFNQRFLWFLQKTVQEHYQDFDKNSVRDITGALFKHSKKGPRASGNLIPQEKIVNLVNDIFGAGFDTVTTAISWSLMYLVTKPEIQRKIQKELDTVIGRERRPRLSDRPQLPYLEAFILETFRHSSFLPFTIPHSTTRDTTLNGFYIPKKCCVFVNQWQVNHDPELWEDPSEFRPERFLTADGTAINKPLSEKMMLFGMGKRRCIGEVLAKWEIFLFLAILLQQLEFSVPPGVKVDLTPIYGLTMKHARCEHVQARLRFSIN
- Experiment Description: CYP inhibition, 1A2
- Format: in vitro ADME
Measurement Name: inhibition at 10 µM
Just the number plus its unit, please.

Memo: O=C(NO)c1ccc(CN2CCCc3cc(Cl)ccc32)cc1 , reported inhibition at 10 µM: 20.5%

----------
- Experiment Description: Hepatocyte stability, mouse
- Format: in vitro ADME
- Experimental Setup: hepatocytes
Measurement Name: half-life (min)
Please reply with the bare figure in min and do not write the unit itself.

Field half-life (entry O=C(NO)c1ccc(CN2CCCc3cc(Cl)ccc32)cc1 ) reads 10

----------
- Test Target: CYP2C19 (Homo sapiens)
- Sequence (P33261 whole entry): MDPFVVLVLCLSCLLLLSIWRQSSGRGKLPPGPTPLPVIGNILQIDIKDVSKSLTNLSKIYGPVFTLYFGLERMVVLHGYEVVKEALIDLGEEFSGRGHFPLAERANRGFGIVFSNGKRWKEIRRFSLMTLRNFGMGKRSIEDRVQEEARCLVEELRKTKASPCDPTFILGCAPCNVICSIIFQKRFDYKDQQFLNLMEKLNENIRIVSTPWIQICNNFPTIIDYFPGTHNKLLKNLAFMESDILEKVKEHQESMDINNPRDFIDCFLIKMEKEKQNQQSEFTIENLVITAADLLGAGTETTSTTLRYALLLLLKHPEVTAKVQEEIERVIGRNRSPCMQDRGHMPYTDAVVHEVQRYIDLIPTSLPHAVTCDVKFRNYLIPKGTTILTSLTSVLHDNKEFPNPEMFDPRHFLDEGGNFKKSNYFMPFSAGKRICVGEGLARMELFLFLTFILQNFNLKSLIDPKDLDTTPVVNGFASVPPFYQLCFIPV
- Experiment Description: CYP inhibition, 2C19
- Type: in vitro ADME
Measurement Name: inhibition at 10 µM (%)
Just the number in %, nothing appended.

Assay CYP2C19 (Homo sapiens), sample O=C(NO)c1ccc(CN2CCCc3cc(Cl)ccc32)cc1 , inhibition at 10 µM read: 83.2

----------
- Test Target: CYP2D6 (Homo sapiens, UniProt P10635)
- Sequence (P10635 whole entry): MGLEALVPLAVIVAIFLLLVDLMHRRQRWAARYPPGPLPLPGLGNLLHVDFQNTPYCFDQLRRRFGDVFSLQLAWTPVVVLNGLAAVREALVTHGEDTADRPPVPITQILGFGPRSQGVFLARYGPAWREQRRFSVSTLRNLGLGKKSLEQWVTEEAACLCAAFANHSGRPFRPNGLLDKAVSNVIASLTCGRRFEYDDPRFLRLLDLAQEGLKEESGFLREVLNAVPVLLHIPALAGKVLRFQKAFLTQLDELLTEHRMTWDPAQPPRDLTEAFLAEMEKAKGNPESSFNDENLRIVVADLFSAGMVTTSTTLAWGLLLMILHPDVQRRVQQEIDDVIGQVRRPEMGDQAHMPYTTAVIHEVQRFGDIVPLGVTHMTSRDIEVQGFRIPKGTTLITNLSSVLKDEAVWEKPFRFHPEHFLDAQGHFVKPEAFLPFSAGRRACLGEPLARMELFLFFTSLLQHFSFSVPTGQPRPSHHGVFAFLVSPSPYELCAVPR
- Experiment Description: CYP inhibition, 2D6
- Type: in vitro ADME
Measurement Name: inhibition at 10 µM
Write your answer as a measured quantity: the number, then the unit.

The reported value for O=C(NO)c1ccc(CN2CCCc3cc(Cl)ccc32)cc1 [SW-100] in terms of inhibition at 10 µM is 2.51%

----------
- Test Target: CYP2C9 (Homo sapiens)
- Sequence (P11712 whole entry): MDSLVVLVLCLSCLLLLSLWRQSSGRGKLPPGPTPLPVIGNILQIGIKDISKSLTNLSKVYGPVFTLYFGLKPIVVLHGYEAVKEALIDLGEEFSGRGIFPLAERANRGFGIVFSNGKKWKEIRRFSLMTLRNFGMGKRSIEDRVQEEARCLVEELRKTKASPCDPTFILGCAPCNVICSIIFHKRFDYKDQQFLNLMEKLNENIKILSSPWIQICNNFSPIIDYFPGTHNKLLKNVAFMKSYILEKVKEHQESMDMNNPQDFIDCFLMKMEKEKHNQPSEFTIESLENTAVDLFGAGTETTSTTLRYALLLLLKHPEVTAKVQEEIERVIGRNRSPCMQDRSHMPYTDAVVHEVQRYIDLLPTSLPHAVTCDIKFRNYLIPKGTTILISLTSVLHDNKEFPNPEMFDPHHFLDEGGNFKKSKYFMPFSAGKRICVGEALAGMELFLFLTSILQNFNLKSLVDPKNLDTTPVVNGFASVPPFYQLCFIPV
- Experiment Description: CYP inhibition, 2C9
- Type: in vitro ADME
Measurement Name: inhibition at 10 µM (%)
Express it in %; write the number only.

// inhibition at 10 µM (CYP2C9 (Homo sapiens)) for O=C(NO)c1ccc(CN2CCCc3cc(Cl)ccc32)cc1 = 18.8

----------
- System: MDR1
- Experiment Description: Permeability studies in MDCK-MDR1 cells
- Assay type: in vitro ADME
- Experimental Setup: dog, MDCK-MDR1
Measurement Name: Papp A→B at 2 h (×10⁻⁶ cm/s)
Unit ×10⁻⁶ cm/s implied. Number only.

For this compound ( O=C(NO)c1ccc(CN2CCc3ccc(Cl)cc32)cc1 [Compound 10] ), measured Papp A→B at 2 h is 9.14

Per the record, O=C(NO)c1ccc(CN2CCc3ccc(F)cc32)cc1 [Compound 11] has Papp A→B at 2 h of 10.5

// field: Papp A→B at 2 h; key: Cn1c(NCc2ccc(C(=O)NO)cc2)nc2ccccc21 [Compound 12] ; value = 0.66

Reported Papp A→B at 2 h of CN1CCc2c(c3ccccc3n2Cc2ccc(C(=O)NO)cc2)C1 [TubA, tubastatin A, reference compound] : 2

Quick note, Papp A→B at 2 h for CN(C)c1ccc(Cc2ccc(C(=O)NO)cc2)cc1 [Compound 7] landed at 17.6

Per the record, Cc1nc2ccccc2n1Cc1ccc(C(=O)NO)cc1F [Compound 9] has Papp A→B at 2 h of 3.89

Value of measured Papp A→B at 2 h for the entry Cc1nc2ccc(F)cc2n1Cc1ccc(C(=O)NO)cc1 [Compound 8] : 4.44

Papp A→B at 2 h in this record for O=C(NO)c1ccc(CN2CCCc3cc(Cl)ccc32)cc1 [SW-100] : 4.58

----------
- Experiment Description: Pilot brain and plasma pharmacokinetic studies of SW-100
- Format: in vivo, C57BL/6 male mice
- Experimental Setup: male, C57BL/6, mouse, plasma, ip, 20 mg/kg
Measurement Name: concentration at 4 h (ng/mL)
Write the number in ng/mL without appending the unit.

# concentration at 4 h of O=C(NO)c1ccc(CN2CCCc3cc(Cl)ccc32)cc1 [SW-100] = 2.52

----------
- System: MDCK-MDR1 cell line
- Experiment Description: Permeability studies in MDCK-MDR1 cells
- Assay type: in vitro ADME
- Experimental Setup: MDCK-MDR1 cell line
I'd appreciate it if you could supply efflux ratio values for the items below.
Quick one: just the number, no unit, thanks!

Entry O=C(NO)c1ccc(Cn2cccn2)cc1 [Compound 6, 4-(1-Pyrazolylmethyl)-N-hydroxybenzamide] — recorded efflux ratio = 0.70

// efflux ratio lookup, compound = Cc1nc2ccc(F)cc2n1Cc1ccc(C(=O)NO)cc1 , result: 3.23

Value of measured efflux ratio for the entry Cn1c(NCc2ccc(C(=O)NO)cc2)nc2ccccc21 : 2.95

Record CN1CCc2c(c3ccccc3n2Cc2ccc(C(=O)NO)cc2)C1 [TubA, tubastatin A, reference compound] . Reported efflux ratio: 9.83

Briefly, efflux ratio measured for Cc1nc2ccccc2n1Cc1ccc(C(=O)NO)cc1F : 4.23

// efflux ratio value for CN(C)c1ccc(Cc2ccc(C(=O)NO)cc2)cc1 : 0.63

response.value for O=C(NO)c1ccc(CN2CCc3ccc(F)cc32)cc1 (field: efflux ratio) = 1.05

The reported efflux ratio of the compound O=C(NO)c1ccc(CN2CCc3ccc(Cl)cc32)cc1 was 0.62

----------
- Tested on: MDR1 (P-gp)
- Experiment Description: Permeability studies in MDCK-MDR1 cells
- Assay type: in vitro ADME
- Experimental Setup: dog, MDCK-MDR1, efflux ratio, MDCK-MDR1 cell line
Assign efflux ratio at 2 h to each entry below.

I looked up O=C(NO)c1ccc(CN2CCc3ccc(F)cc32)cc1 and its efflux ratio at 2 h for MDR1 (P-gp) was < 1

Fill in: MDR1 (P-gp) efflux ratio at 2 h for Cn1c(NCc2ccc(C(=O)NO)cc2)nc2ccccc21 = > 2.5

Item Cc1nc2ccccc2n1Cc1ccc(C(=O)NO)cc1F ; assay system MDR1 (P-gp); efflux ratio at 2 h reported as > 2.5

Reported efflux ratio at 2 h (MDR1 (P-gp)) for entry O=C(NO)c1ccc(CN2CCc3ccc(Cl)cc32)cc1 is < 1

Field efflux ratio at 2 h (MDR1 (P-gp)), entry CN(C)c1ccc(Cc2ccc(C(=O)NO)cc2)cc1 : < 1

efflux ratio at 2 h for MDR1 (P-gp) with input Cc1nc2ccc(F)cc2n1Cc1ccc(C(=O)NO)cc1 equals > 2.5
